Origin of measurements: ChEMBL document CHEMBL1201862

subject of test: Estrogen receptor beta (Homo sapiens, UniProt Q92731)
Sequence (Q92731 whole entry): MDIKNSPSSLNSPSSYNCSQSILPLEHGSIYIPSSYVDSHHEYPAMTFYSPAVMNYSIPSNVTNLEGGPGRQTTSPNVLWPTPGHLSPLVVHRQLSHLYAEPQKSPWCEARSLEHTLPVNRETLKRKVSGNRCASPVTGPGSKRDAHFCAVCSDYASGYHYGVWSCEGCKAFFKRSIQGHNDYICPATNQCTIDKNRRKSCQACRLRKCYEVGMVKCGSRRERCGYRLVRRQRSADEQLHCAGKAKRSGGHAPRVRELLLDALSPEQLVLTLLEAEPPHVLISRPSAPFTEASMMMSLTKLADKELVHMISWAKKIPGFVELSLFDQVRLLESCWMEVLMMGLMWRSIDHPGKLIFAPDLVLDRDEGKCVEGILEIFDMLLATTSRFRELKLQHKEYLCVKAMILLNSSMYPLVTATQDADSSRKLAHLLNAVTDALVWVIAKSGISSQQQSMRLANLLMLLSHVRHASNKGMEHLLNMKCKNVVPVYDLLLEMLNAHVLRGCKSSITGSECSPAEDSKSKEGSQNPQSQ
assay explanation: blockers of SRC-3 recruitment to ERβ – biochemical, ELISA, streptavidin-HRP readout, orthogonal assay, confirmation (AID 1060)
readout name: IC50

IC50 lookup needed for `CCOc1ccc2[nH]c(=O)c(=O)[nH]c2c1` , thanks. 12.2 µM (not active)

Can you look up the measured IC50 of `O=C(c1cc2ncc(Br)cn2n1)N1CCN(C(=O)c2ccco2)CC1` for me? 0.349 µM (not active)

Sample O=C(O)C(O)c1ccco1 (centres undefined) — what was its IC50? 3.23 µM (not active)

# get_value(readout='IC50', item= `CCOc1c(C(N)=O)c(-c2ccccc2)c2c(O)nc3ccccc3n12` ) > 50 µM (not active)

* * *

assay explanation: blockers of CRF-binding protein–CRF-R2 complex – cell-based, uHTS hits, 384-well, dose response (AID 651639)
Type: functional, Homo sapiens
run parameters: read-out: IC50_Mean
The source made the active and inactive calls.
readout name: IC50

For the molecule shown here, `CCCCOc1ccccc1C1C(C(=O)OC)=CN(CC)C=C1C(=O)OC` , give the reported IC50. 16 µM (active)

I would be grateful if you could share the reported IC50 for COc1ccc(C(C(=O)NC2CCCCC2)N(C(=O)c2sc(C)nc2C)c2ccc(OC)cc2)cc1 (centres undefined) . > 20 µM (inactive)

What does the data say about its IC50? Entry: `Cc1ccc(OC(=O)N(C)C[C@@H]2OCc3cnnn3CCCC(=O)N([C@@H](C)CO)C[C@@H]2C)cc1` > 20 µM (inactive)

GET /values?readout=IC50&item= O=C1CC(c2cccc(F)c2)SC(N(c2ccccc2)c2ccccc2)=N1 (centres undefined) 16 µM (active)

* * *

Assignment: determine reported IC50 for the given molecules.
subject of test: Mannose-6-phosphate isomerase (Homo sapiens)
Sequence (P34949 whole entry): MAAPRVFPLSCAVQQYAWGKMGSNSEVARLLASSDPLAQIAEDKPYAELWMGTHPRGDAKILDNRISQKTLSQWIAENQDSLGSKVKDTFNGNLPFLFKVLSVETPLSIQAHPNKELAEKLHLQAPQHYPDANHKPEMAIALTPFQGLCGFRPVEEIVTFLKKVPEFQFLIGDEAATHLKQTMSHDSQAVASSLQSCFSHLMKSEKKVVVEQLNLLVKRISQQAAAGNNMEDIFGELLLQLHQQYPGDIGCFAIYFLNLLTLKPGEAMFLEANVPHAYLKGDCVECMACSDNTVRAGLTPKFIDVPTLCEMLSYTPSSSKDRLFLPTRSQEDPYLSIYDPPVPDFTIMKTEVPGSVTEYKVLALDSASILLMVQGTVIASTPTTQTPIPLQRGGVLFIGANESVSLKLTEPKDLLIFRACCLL
assay explanation: MPI inhibition at elevated mannose 6-phosphate – biochemical, fluorescence intensity, high mannose 6-phosphate, primary screen (AID 1220)
Active and inactive are the calls of the source.

Give its IC50 value. Item: `C(=N\c1cccc2c(/N=C/c3ccco3)cccc12)/c1ccco1` > 50 µM (not active)

Any idea what its IC50 is? The molecule is `Cc1cccc(/C=N/Nc2cc(N3CCOCC3)nc(N3CCOCC3)n2)c1` > 50 µM (not active)

Please report the recorded IC50 for COc1ccc(N2CCC(CNC(=O)Nc3cccc(OC)c3)C2)cc1 (stereo not given) . > 50 µM (not active)

So what's the measured IC50 for this one? COc1cc(OC)c(C2CC(=O)N3CN(C)CSC3=C2C#N)cc1OC (stereo not given) 23.1 µM (active)

Item CCN(CC)C(=O)C1CCCN(C(=O)Nc2ccc3nsnc3c2)C1 (stereo not given) has what recorded IC50? > 50 µM (not active)

* * *

Can you tell me AC50 for the items I'm about to list?
subject of test: FAD-linked sulfhydryl oxidase ALR (Homo sapiens, UniProt P55789)
Sequence (P55789 whole entry): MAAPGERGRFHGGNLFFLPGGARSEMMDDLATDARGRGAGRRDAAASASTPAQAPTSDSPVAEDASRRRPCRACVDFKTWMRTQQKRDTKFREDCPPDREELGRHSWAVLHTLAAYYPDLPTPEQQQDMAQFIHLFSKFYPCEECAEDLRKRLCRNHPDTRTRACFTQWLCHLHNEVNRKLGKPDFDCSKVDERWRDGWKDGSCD
assay explanation: ALR-catalysed DTT oxidation blockers – biochemical, H2O2 detection, luminescence, cherry-pick, dose response (AID 493248)
The source made the active and inactive calls.

FAD-linked sulfhydryl oxidase ALR (Homo sapiens, UniProt P55789) / AC50 / Cc1ccc(O)c(NC(=O)C2CCCN2C(=O)OCc2ccccc2)c1 (stereo unspecified) : value? 8.89 µM (active)

Form: Entry = `Cc1cc(O)nc2c(C)cc(S(=O)(=O)Nc3ccc(O)cc3)cc12` | System = FAD-linked sulfhydryl oxidase ALR (Homo sapiens, UniProt P55789) | AC50 = ____ 1.3 µM (active)

Query for FAD-linked sulfhydryl oxidase ALR (Homo sapiens, UniProt P55789): what AC50 does the record show for `CCc1ccc(NC(=O)CN2C(=O)CSC2=O)cc1` ? 1.2 µM (active)

Identify the measured AC50 of `NC(=NO)c1cn(Cc2ccccc2Cl)c2ccccc12` for FAD-linked sulfhydryl oxidase ALR (Homo sapiens, UniProt P55789). 0.488 µM (active)

Give recorded AC50 with FAD-linked sulfhydryl oxidase ALR (Homo sapiens, UniProt P55789) for the following molecule: `COc1ccc(Br)cc1C(=O)Nc1ccc(O)cc1` 2.75 µM (active)

Please tell me: AC50 of `Cc1ccc2nc(-c3ccccn3)c(NC3CCCC3)n2c1` , system FAD-linked sulfhydryl oxidase ALR (Homo sapiens, UniProt P55789)? 7.26 µM (active)
